Please provide measured Relative MIC for the entries that follow.
# System: K. pneumoniae ATCC 10031 (SEN) and K. pneumoniae ATCC 700603 (MDR)
# experimental_details: Adaptive laboratory evolution (ALE), relative MIC of evolved lines
# Type: cell-based, Klebsiella pneumoniae
# run_conditions: KP-SEN (Klebsiella pneumoniae ATCC 10031), evolved line 4
Where a SMILES comes first, the peptide text is derived from it. Bridges are numbered along the chain shown (N, C = ends). [ ]: non-standard residue; d: D form. The star is where a group is joined. X1 = NC[C@@H](CC(=O)*)c1cccc(Cl)c1; Dab = NCC[C@H](N)C(=O)O; Dap = NC[C@H](N)C(=O)O
Answers are plain numbers.

Some compounds with known Relative MIC results, for comparison:
O=c1ccc2ncc(=O)n3c2n1C[C@H]3CN1CCC(NCc2cc3c(cn2)OCCC3)CC1; 1024
CC(C)C[C@@H]1NC(=O)[C@@H](Cc2ccccc2)NC(=O)[C@H](CCN)NC(=O)[C@@H](NC(=O)[C@H](CN)NC(=O)[C@@H](NC(=O)C[C@H](CN)c2cccc(Cl)c2)[C@@H](C)O)CCNC(=O)[C@H]([C@@H](C)O)NC(=O)[C@H](CCN)NC(=O)[C@H](CCN)NC1=O [SPR206] (X1-T[Dap][Dab][Dab][dF]L[Dab][Dab]T; lactam 3-C (inferred); N-terminus assumed); 2048
CC(C)c1ccc(Cn2ccc3c4c(N)nc(NC5CC5)nc4ccc32)cc1; 16

From here, focus on the item given below.
Input: Data request, read-out Relative MIC, for CN(C)c1cc(CNCC(C)(C)C)c(O)c2c1C[C@H]1C[C@H]3[C@H](N(C)C)C(O)=C(C(N)=O)C(=O)[C@@]3(O)C(O)=C1C2=O
Output: 64

Provenance of the data: paper PMC11845477
